Numbers sourced from the RNAGym collection of RNA variant scans (doi:10.7554/elife.90254).

Give self-cleavage for every item shown.
B1: LINE1-full (parent)
chain: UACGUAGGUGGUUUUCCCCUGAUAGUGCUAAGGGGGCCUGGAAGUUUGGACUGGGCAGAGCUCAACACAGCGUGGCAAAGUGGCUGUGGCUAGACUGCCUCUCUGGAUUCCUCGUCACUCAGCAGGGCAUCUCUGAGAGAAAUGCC

Variants of: B1
protocol.details: self-cleavage, relative activity (ratio to wild type); higher = more cleavage; in vitro, sequencing; the parent is a self-cleaving ribozyme

QUERY: Item under review: UACGUAGGUGGUCUUCCCCUGAUAGUGCUAAGGGGGCCUGGAAGUUUGGACUGGGCAGAGCUCAACACAGCGUGGCAAAGUGGCUGGGGCUAGACUGCCUCUCUGGAUUCCUCGUCACUCAGCAGGGCAUCUCUGAGAGAAAUGCC [U13C U87G] . Reported self-cleavage?
RESULT: 0.21

QUERY: Item under review: UACGUAGGUGGUUUUCCCCUGAUAGUGCUAAGGGGGCCUGGAAGUUUGGACUGGGCAGAGCUCAACACAGCGUCGCAAAGUGGCUGUGGCUAGACUGCCUCUCUGGAUUCCUCGUCACUCAGCAGGGCAUCACUGAGAGAAAUGCC [G74C U132A] . Reported self-cleavage?
RESULT: 1.46

QUERY: Item under review: UACGUAGGUGGUUUUCCCCUGAUAGUGCUAAGGGGGCCUGGAAGUUUGGACUGGGCAGAGCUCAACACAGCGUGGCAAAGUGGCUGUGGCUGGACUGCCUCUCUGGACUCCUCGUCACUCAGCAGGGCAUCUCUGAGAGAAAUGCC [A92G U108C] . Reported self-cleavage?
RESULT: 1.11

QUERY: Item under review: UACGUAGGUGGUUUUCCCCUGAUAGUGCUAAGGGGGCCUGGAAGUUUGGACUGGGCAGAGCUCAACACAGCGUGGCAAAAUGGCUGUGGCUAGACUGCCUCUCUGGAUUCCUCGUCACUCAGCAGGGCAUCUCUGAGAGUAAUGCC [G80A A140U] . Reported self-cleavage?
RESULT: 1.58

QUERY: Item under review: UACGUAGGUGGUUUUCCCCUGAUAGUGCUAAGGGGGCCUGGAAGUUUGGACUGAGCAGAGCUCAGCACAGCGUGGCAAAGUGGCUGUGGCUAGACUGCCUCUCUGGAUUCCUCGUCACUCAGCAGGGCAUCUCUGAGAGAAAUGCC [G54A A65G] . Reported self-cleavage?
RESULT: 0.02

QUERY: Item under review: UACGUAGGUGGUUUUCCCCUGAUUGUGCUAAGGGGGCCUGGAAGUUUGGACUGGGCAGAGCUCAACACAGCGUGGCAAAGUGGCUGUGGCUAGACUGCCUCUCUGGAUUCCUCGUAACUCAGCAGGGCAUCUCUGAGAGAAAUGCC [A24U C116A] . Reported self-cleavage?
RESULT: 1.7

QUERY: Item under review: UACGUAGGUGGUUUUCCCCUGAUAGUGCUAAGGGGGCCUGGAAGUUUGGACUGGGCAGAGCUCAACACAGCGUGGCAAAGUGGCUGUGACUAGACUGCCUCUCUGGAUUCCUCGUCACUCAGCAGGGCAUCUCUGGGAGAAAUGCC [G89A A136G] . Reported self-cleavage?
RESULT: 0.04

QUERY: Item under review: UACGUAGGUGGUUUUCCCCUGAUAGUGCUAAGGGGGCCUGGAAGUUUGGACCGGGCAGAGCUCAACUCAGCGUGGCAAAGUGGCUGUGGCUAGACUGCCUCUCUGGAUUCCUCGUCACUCAGCAGGGCAUCUCUGAGAGAAAUGCC [U52C A67U] . Reported self-cleavage?
RESULT: 0.16

QUERY: Item under review: UACGUAGGUGGUUUUCCCCUGAUUGUGCUAAGGGGGCCUGGAAGUUUGGACUGGGCAGAGCUCAACACAGCGCGGCAAAGUGGCUGUGGCUAGACUGCCUCUCUGGAUUCCUCGUCACUCAGCAGGGCAUCUCUGAGAGAAAUGCC [A24U U73C] . Reported self-cleavage?
RESULT: 1.79

QUERY: Item under review: CACGUAGGUGGUUUUCCCCUGAUAGUGCUAAGGGGGCCUGGAAGUUUGGACUGGGCAGAGCUCAACACAGCGCGGCAAAGUGGCUGUGGCUAGACUGCCUCUCUGGAUUCCUCGUCACUCAGCAGGGCAUCUCUGAGAGAAAUGCC [U1C U73C] . Reported self-cleavage?
RESULT: 1.04

QUERY: Item under review: UACGUAGGUGGUUUUCCCCUGAUAGUGCUAAGGGGGCCUGGAAGUUUGGACUGGGCAGAGCUCAACACUGCGUGGCAAAGUGGCUGUGGCUAGACUGCCUCUCUGGAUUCCUCGUCACUCAGCAGGGCAUUUCUGAGAGAAAUGCC [A69U C131U] . Reported self-cleavage?
RESULT: 0.03

QUERY: Item under review: UACGUAGGUGGUUUUCCCCUGAUAGUGCUAAGGGGGCCUGGAAGUUUGGACUGGGCAGAGCUCAACACAGCGUGGCAAAGUGGCUGUGGCUAGACUGCCUCUCUGGUUUCCUCGUCACUCGGCAGGGCAUCUCUGAGAGAAAUGCC [A107U A121G] . Reported self-cleavage?
RESULT: 1.62

QUERY: Item under review: UACGUAGGUGGUUUUCCCCUGAUAGUGCUAAGGGGGCCUGGAAGUUUGGACUGGGCAGAGCUCAACACAGCGUGGCAAAGUGGCUGUGGCUAGACUGCCUCACUGGAUUCCUCGUCACUCAGCAGGGCAACUCUGAGAGAAAUGCC [U102A U130A] . Reported self-cleavage?
RESULT: 1.28

QUERY: Item under review: UACGUGGGUGGUUUUCCCCUGAUAGUGCUAAGGGGGCCUGGAAGUUUGGACUGGGCAGAGCUCAACACAGCGUGGCAAAGUGGCUGUGGCUAGACUGCCUCUCUGGAUUCCUCGUCACUCAGCAGGGCAUCUCUGAGUGAAAUGCC [A6G A138U] . Reported self-cleavage?
RESULT: 0.67

QUERY: Item under review: UACGUAGGUGGUUUUCCCCUGAUAGUGCUAAGGGGGCCUGGAAGUUUGGACUGGGCAGAACUCAACACAGCGUGGCAAAGUGGCUGUGGCUAGACUGCCUCUCUGGAUUCGUCGUCACUCAGCAGGGCAUCUCUGAGAGAAAUGCC [G60A C111G] . Reported self-cleavage?
RESULT: 0.02

QUERY: Item under review: UACGUAGGUGGUUUUCCCCUGAUAGUGCUAAGGCGGCCUGGAAGUUUGGACUGGGCAGAGCUCAACACAGCGUGGCAAAGUGGCUGUGGCUAGACUGCCUCUCUGGAUUCCUCGUCACUCAGCAGGGCAUCUCUGAGAGUAAUGCC [G34C A140U] . Reported self-cleavage?
RESULT: 1.31

QUERY: Item under review: UACGUAGGUGGUUUUCCCCUGAUAGUGCUAAGGGGGCCUGGAAGUUUGGACUGGGCAGAGCUCAACACAGCGUGGCAAAGUGGCUGAGGCUAGACUGCCUCUCUGGAUUCCACGUCACUCAGCAGGGCAUCUCUGAGAGAAAUGCC [U87A U112A] . Reported self-cleavage?
RESULT: 0.07

QUERY: Item under review: UUCGUAGGUGGUUUUCCCCUGAUAGUGCUAAGGGGGCCUGGAAGUUUGGACUGGGCAGAGCUCAACACAGCGUGGCAAAGUGGCUGUGGCUAGACUGCCUCUCUGGAUUCCUCGUCACUCAGCAGGGCAUCUCUGAGAGAAAAGCC [A2U U143A] . Reported self-cleavage?
RESULT: 1

QUERY: Item under review: UACGUAGGUGGUUUUCCCCUGAUAGUGCUAAGGGGGCCUGGAAGUUUGGACUGGGCGGAGCUCAACACAGCGUGGCAAAGUGGCUGUGGCUAGACUGCAUCUCUGGAUUCCUCGUCACUCAGCAGGGCAUCUCUGAGAGAAAUGCC [A57G C99A] . Reported self-cleavage?
RESULT: 0.2

QUERY: Item under review: UACGUAGGUGGUUUUCCCCUGAUAGUGCUAAGGGGGCCUGGAAGUUUGGACUGGGCAGAGCUCAACACAGCGUGGCAAAGUGGCUGUGGCUAGACUGCCUCUCUGGAUUCCACGUCACUCAGCAGGGCACCUCUGAGAGAAAUGCC [U112A U130C] . Reported self-cleavage?
RESULT: 1.6

QUERY: Item under review: UACGUAGGUGGUUUUCCCCUGAUAGUGCUAAGGGGGCCUGGAAGUUUGGACUGGGCAGAGCUCAACACAGCGUGGCAAAGUGGCUGUGGCUAGACUGCCUCUCUCGAUUCCUCGUCACUCAGCAGGGCAUCUCUGAGAGGAAUGCC [G105C A140G] . Reported self-cleavage?
RESULT: 1.83

QUERY: Item under review: UACGUAGGUGGUUUUCCUCUGAUAGUGCUAAGGGGGCCUGGAAGUUUGGACUGGGCAGAGCUCAACGCAGCGUGGCAAAGUGGCUGUGGCUAGACUGCCUCUCUGGAUUCCUCGUCACUCAGCAGGGCAUCUCUGAGAGAAAUGCC [C18U A67G] . Reported self-cleavage?
RESULT: 0.44
